Recorded values, source patent US20240325555A1.

# subjectOfTest: cynomolgus LIV-1 (cynomolgus, UniProt A0A2K5WH46 30-741)
# Sequence (A0A2K5WH46 entry or part of it): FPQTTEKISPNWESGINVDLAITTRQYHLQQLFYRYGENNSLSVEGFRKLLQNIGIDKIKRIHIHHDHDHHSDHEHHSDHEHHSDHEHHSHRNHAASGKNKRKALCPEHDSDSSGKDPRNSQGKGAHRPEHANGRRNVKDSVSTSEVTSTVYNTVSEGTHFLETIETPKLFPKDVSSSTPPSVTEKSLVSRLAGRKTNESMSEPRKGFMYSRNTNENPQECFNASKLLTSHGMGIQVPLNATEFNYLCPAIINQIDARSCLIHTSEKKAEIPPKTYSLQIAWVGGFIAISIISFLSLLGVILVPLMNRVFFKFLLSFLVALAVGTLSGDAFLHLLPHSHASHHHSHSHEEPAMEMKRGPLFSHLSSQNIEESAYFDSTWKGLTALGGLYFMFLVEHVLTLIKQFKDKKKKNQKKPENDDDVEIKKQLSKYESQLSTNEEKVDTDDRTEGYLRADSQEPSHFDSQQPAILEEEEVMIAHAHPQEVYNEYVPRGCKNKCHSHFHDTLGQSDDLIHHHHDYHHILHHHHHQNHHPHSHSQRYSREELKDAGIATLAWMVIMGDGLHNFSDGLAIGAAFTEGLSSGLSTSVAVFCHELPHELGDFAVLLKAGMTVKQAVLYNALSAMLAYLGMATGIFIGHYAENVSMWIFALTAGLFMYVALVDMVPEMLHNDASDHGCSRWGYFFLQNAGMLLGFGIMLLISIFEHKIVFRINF
# procedureDetails: FACS, cyno LIV-1 cells

{"columns": ["binder", "EC50, nM"],
 "data": [
  ["290F10G10.p1.Z18 (antibody, V domains shown) VH: EIQLVQSGAEVKKPGASVKVSCKASGYTFTSYWIHWVREAPGQGLEWIGTIYPGDADTRSTQKFKDKATVTADKSTSTVYMELSSLRSEDTAVYYCTRSLIHDDYDKYYFDYWGQGTTVTVSS VL: DIQMTQSPSSLSASVGDRVTITCKARQDINKYIAWYQHKPGKGPKLLIHYTSILQPGIPSRFSGSGSGRDYTFTISSLQPEDIATYYCLQYDYFFTFGGGTKVEIK", 0.56],
  ["290F10G10.p1.Z4 (antibody, V domains shown) VH: EVQLVQSGAEVKKPGASVKVSCKASGYTFTSYWIHWVRQAPGQGLEWMGTIYPGDADTRSTQKFKDRVTVTADKSTSTVYMELSSLRSEDTAVYYCARSLIHDDYDKYYFDYWGQGTTVTVSS VL: DIQMTQSPSSLSASVGDRVTITCKARQDINKYIAWYQQKPGKAPKLLIYYTSILQPGVPSRFSGSGSGRDYTFTISSLQPEDIATYYCLQYDYFFTFGGGTKVEIK", 0.34],
  ["290F10G10.p1.Z7 (antibody, V domains shown) VH: EVQLVQSGAEVKKPGASVKVSCKASGYTFTSYWIHWVRQAPGQGLEWIGTIYPGDADTRSTQKFKDKATVTADKSTSTVYMELSSLRSEDTAVYYCARSLIHDDYDKYYFDYWGQGTTVTVSS VL: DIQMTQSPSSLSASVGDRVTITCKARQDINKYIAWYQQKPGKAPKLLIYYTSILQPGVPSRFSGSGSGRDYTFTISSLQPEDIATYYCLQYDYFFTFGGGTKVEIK", 0.37]
]}
